target: T1, cTnI quality control product recombinant protein (human, UniProt P19429 1-210, limits assumed); assay: AMC biosensor, antibody on sensor
T1 construct: the assay paragraphs only say cTnI; also called cardiac troponin I; cTnI antigen
T1 sequence (P19429 whole entry): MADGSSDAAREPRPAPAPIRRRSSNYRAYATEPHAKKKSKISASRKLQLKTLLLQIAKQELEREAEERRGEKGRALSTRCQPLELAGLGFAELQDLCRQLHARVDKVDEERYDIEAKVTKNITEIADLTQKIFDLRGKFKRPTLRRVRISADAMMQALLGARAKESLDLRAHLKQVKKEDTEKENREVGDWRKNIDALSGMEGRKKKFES
measuredProperty: kon (M⁻¹ s⁻¹)
One number for each entry, in M⁻¹ s⁻¹.

Solved cases (2 shown):
- binder: "Mutation 1-9 (antibody, V domains shown) VH: QVQLQQSGTELAKPGASVKFSCKASGYTFSSYWMYWIKQRPGQGLEWIGYINPSSGHTDYNQRFKDKATLTADKSSSTAYMQLNSLTSEDSAVYYCARKYFGPFGMDYWGQGTSVTVSS VL: EIFLTQSPAIMSASPGEKVTMTCSASSSVSYVHWYQQKSGTSPKRWIYDTSKIASGIPVRFSGSGSGTSYSLTISSMEAEDAATYYCQQWSTQPYTFGGGTKLEIKR"
  uom: "M⁻¹ s⁻¹"
  kon: 30100
- binder: "Mutation 1-25 (antibody, V domains shown) VH: QVQLQQSGTELAKPGASVKFSCKASGYTFSSYWMYWIKQRPGQGLEWIGYINPSSGHTDYNQRFKDKATLTADKSSSTAYMQLNSLTSEDSAVYYCARRYYGPFGMDYWGQGTSVTVSS VL: EIFLTQSPAIMSASPGEKVTMTCSASTSVSYVHWYQQKSGTSPKRWIYDTSKIASGIPVRFSGSGSGTSYSLTISSMEAEDAATYYCQQWSSNPYTFGGGTKLEIKR"
  uom: "M⁻¹ s⁻¹"
  kon: 36200

Now turn to the next binder.
Can you look up the measured kon of Mutation 1-40 (antibody, V domains shown) VH: QVQLQQSGTELAKPGASVKFSCKASGYTFSTYWMYWIKQRPGQGLEWIGYLNPSSGHTDYNQRFKDKATLTADKSSSTAYMQLNSLTSEDSAVYYCARRYFGPFGMDYWGQGTSVTVSS VL: EIFLTQSPAIMSASPGEKVTMTCSASSTVSYVHWYQQKSGTSPKRWLYDTSKIASGIPVRFSGSGSGTSYSLTISSMEAEDAATYYCQQWSTNPYTFGGGTKLEIKR for me?
33200
